# target_desc: T1, recombinant Fc-KAAG1 fusion protein (full-length KAAG1) (human, UniProt Q9UBP8 1-84, biotinylated with NHS-biotin (sites not given))
# T1 construct: also called recombinant human KAAG1; not shown: human Fc domain encoded by expression plasmid pYD5; vector-encoded residues between the Fc and the BamHI cloning site of pYD5
# T1 sequence: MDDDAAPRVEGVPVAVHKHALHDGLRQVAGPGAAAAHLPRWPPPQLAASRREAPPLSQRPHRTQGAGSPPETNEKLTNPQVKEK
# assay_summary: ELISA
Consider the following binders and their measured OD450 readings.
// return just the number, without any unit appended

{"binder": "3C4 mouse anti-KAAG1 Fab (Fab, V domains shown, Recombinant mouse Fab prepared from E. coli; also called 3C4 Fab; well C4) VH: EVQLQESGPDLVKPSQSLSLTCTVTGFSITSGYGWHWIRQFPGNKLEWMGYINYDGHNDYNPSLKSRISITQDTSKNQFFLQLNSVTTEDTATYYCASSYDGLFAYWGQGTLVTVSA VL: DIVMSQSPSSMYASLGERVTITCKASQDIHNFLNWFQQKPGKSPKTLIFRANRLVDGVPSRFSGSGSGQDYSLTISSLEFEDLGIYSCLQYDEIPLTFGAGTKLELR", "quantity_measured": "OD450", "meas_value": 0.25}
{"binder": "Fab of well D1 (Omniclonal AL0003Z1 plate) (Fab, V domains shown) VH: EVQLQESGPDLVKPSQSLSLTCTVTGFSITSGYGWHWIRQFPGDKLEWMGYISFNGDYNYNPSLKSRISITRDTSKNQFFLQLSSVTTEDTATYYCASSYDGLFAYWGQGTLVTVSA VL: DIKMTQSPSSMYASLGERVTITCKASQDIHTYLNWFQQKPGKSPETLIYRANRLVDGVPSRFSGSGSGQDYSLTISSLEYEDMGIYYCLQYDEFPLTFGAGTKLELK", "quantity_measured": "OD450", "meas_value": 0.15}

Consider the additional binder presented here.
Q) Specify measured OD450 for G12 (Fab, V domains shown, also called Fab of well G12) VH: EVQLQQSVAELVRPGASVTVSCKASGYIFTDYEIHWVKQTPAHGLEWIGVIDPETGNTAFNQKFKGKATLTADISSSTAYMELSSLTSEDSAVYYCMGYSDYWGQGTTLTVSS VL: DIVMTQSPKFMSTSVGDRVSITCKASQDVGTAVAWYQQKPGQSPELLIYWTSTRHTGVPDRFSGSGSGTDFTLTISSVQAEDLADYFCQQHYSIPLTFGAGTKLELR .
A) 1.38
